- study-target: T1, fragment DIR-II (last 27 amino acids of the sequence encoded by the retained intron of DIR) (human)
- T1 construct: also called target fragment DIR-II
- T1 peptide: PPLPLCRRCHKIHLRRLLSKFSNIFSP
- experiment-notes: ELISA, DIR-II coated; mAb (1 mg/mL) diluted 1:6k
measurement-type: absorbance at 450 nm

>>> recorded_result("DIR antibody IR-II-5 (antibody, V domains shown, Monoclonal antibody) VH: QVQLQQSGAEVMKPGASVKISCKATGYTFSSYWIEWIKQRPGHGLEWIGEILPGGYNTNSNENFKGKATFTADTSSNTAYMQLSSLTSEDSAVYYCARSGMITTTGDYYAMDYWGQGTSVTVSS VL: DIELTQSPASLAVSLGQRATISCKASQSVDYDGESYMNWYQQKPGQPPKLLIYAASNLESGIPARFSGSGSGTDFTLNIHPVEEEDAATYYCQQSNDDPRTFGGGTKLEIK")
"1.31 absorbance (450 nm)"
>>> recorded_result("DIR antibody IR-II-9 (antibody, V domains shown, Monoclonal antibody) VH: QVQLQQSGAELMKPGASVKISCKATGYTFSRYWIEWIKQRPGHGLEWIGEILPGSYYSTNSNEKFKGKATFTADTSSNTAYMQLSSLTSEDSAVYYCARSGVITTRGDYFAMDYWGHGTSVTVSS VL: DIELTQSPASLAVSLGQRATISCKASQSVDYDGESYMNWYQQKPGQPPKLLIYAASNLESGIPARFSGSGSGTDFTLNIHPVEEEDAATYYCQQSYDDPRAFGGGTKLEIK")
"3.27 absorbance (450 nm)"

Next binder, absorbance at 450 nm to be filled in.
What does the data say about its absorbance at 450 nm? Entry: DIR antibody IR-II-4 (antibody, V domains shown, Monoclonal antibody) VH: QVQLQQSGAELMKPGASVKISCKATGYTFSSYWIEWVKQRPGHGLEWIGEILPGSGSTNYNEKFKGKATFTADTSSNTAYMQLNSLTSEDSAVYYCARTDDGYLSYFAMDYWGQGTSVTVSS VL: DILMTQTPASLAVSLGQRATISCKASQSVDYDGDSYMNWYQQKPGQPPKLLIYAASNLESGIPARFSGSGSGTDFTLNIHPVEEEDAATYYCQQSNEDPRTFGGGTKLEIK 1.77 absorbance (450 nm)
